// provenance: patent US4005206A

# experimental protocol: Acute toxicity
# test conditions: mouse, in vivo, ip; intraperitoneal, mice, mortality 48 hours later; read-out: Approximate DL50 (50% lethal dose)
Structures can show the parent of a compound that is named as a salt.
Criterion: LD50 at 48 h strictly less than 300 mg/kg. Met: fulfilled. Not met: not fulfilled.

>>> answer_label("COc1ccc2[nH]cc(CC3NCCc4c3[nH]c3ccc(O)cc43)c2c1 (centres unmarked)")
"fulfilled"
>>> answer_label("Oc1ccc2[nH]c3c(c2c1)CCNC3Cc1c[nH]c2ccccc12 (centres unmarked)")
"fulfilled"
>>> answer_label("Clc1ccc2[nH]c3c(c2c1)CCNC3Cc1c[nH]c2ccccc12 (centres unmarked)")
"fulfilled"
>>> answer_label("COc1ccc2[nH]c3c(c2c1)CCNC3Cc1c[nH]c2ccccc12 (centres unmarked) [Example 3, hydrochloride]")
"not fulfilled"
>>> answer_label("COc1ccc2[nH]cc(CC3NCCc4c3[nH]c3ccc(OC)cc43)c2c1 (centres unmarked)")
"fulfilled"
>>> answer_label("Clc1ccc2[nH]cc(CC3NCCc4c3[nH]c3ccccc43)c2c1 (centres unmarked) [Example 4, hydrochloride]")
"not fulfilled"
>>> answer_label("COc1ccc2[nH]cc(CC3NCCc4c3[nH]c3ccccc43)c2c1 (centres unmarked)")
"fulfilled"

* * *

# minimal effective dose values compiled below
# System: amytal-induced sleep
# experimental protocol: Potentialization of sleeping time (amytal)
# Format: in vivo, female mice
# test conditions: Mus musculus, ip, 1 h; i.p. one hour before 80 mg/kg i.v. amytal; female mice 18 to 22 g, 25° C; read-out: DE50 (minimum dose for significantly prolonging the duration of sleep)
Counter-ions that a name gives are not always drawn.
value type: minimal effective dose (mg/kg)

>>> endpoint_result("Clc1ccc2[nH]cc(CC3NCCc4c3[nH]c3ccccc43)c2c1 (stereo not drawn) [Example 4, hydrochloride]")
50
>>> endpoint_result("COc1ccc2[nH]cc(CC3NCCc4c3[nH]c3ccc(OC)cc43)c2c1 (stereo not drawn)")
10
>>> endpoint_result("Oc1ccc2[nH]c3c(c2c1)CCNC3Cc1c[nH]c2ccccc12 (stereo not drawn)")
20
>>> endpoint_result("COc1ccc2[nH]cc(CC3NCCc4c3[nH]c3ccccc43)c2c1 (stereo not drawn)")
50
>>> endpoint_result("COc1ccc2[nH]cc(CC3NCCc4c3[nH]c3ccc(O)cc43)c2c1 (stereo not drawn)")
50
>>> endpoint_result("Clc1ccc2[nH]c3c(c2c1)CCNC3Cc1c[nH]c2ccccc12 (stereo not drawn)")
10

* * *

# Test system: serotonine-provoked contraction of guinea pig ileon
# experimental protocol: Antiserotonine activity on isolated ileon
# Assay type: cell-based
# test conditions: Cavia porcellus; isolated guinea pig ileon, Tyrode liquid 37° C, contact time one minute; read-out: IC50 (approximate 50% inhibiting concentration, contraction by serotonine)
Counter-ions that a name gives are not always drawn.
# IC50 values compiled below
value type: IC50 (µg/mL)

>>> endpoint_result("COc1ccc2[nH]c3c(c2c1)CCNC3Cc1c[nH]c2ccccc12 (stereo not shown) [Example 3, hydrochloride]")
1
>>> endpoint_result("COc1ccc2[nH]cc(CC3NCCc4c3[nH]c3ccccc43)c2c1 (stereo not shown) [Example 5]")
2
>>> endpoint_result("COc1ccc2[nH]cc(CC3NCCc4c3[nH]c3ccc(OC)cc43)c2c1 (stereo not shown) [Example 1]")
0.5
>>> endpoint_result("Oc1ccc2[nH]c3c(c2c1)CCNC3Cc1c[nH]c2ccccc12 (stereo not shown) [Example 6]")
2
